System: platelet aggregation in platelet-rich plasma (PRP)
Experiment: In-Vitro Platelet Aggregation in PRP (ADP-induced)
Assay type: cell-based, dogs
Conditions: dog PRP, ADP 50 μM final concentration, 1 min preincubation at 37° C., aggregation monitored 1 min; unit inferred; read-out: IC50 (dosage at which 50% of platelet aggregation is inhibited)
Experimental: In-Vitro Platelet Aggregation in PRP Healthy male or female dogs were fasted for 8 hours prior to drawing blood; then 30 mL whole blood was collected using a butterfly needle and 30 mL plastic syringe with 3 mL of 0.129M buffered sodium citrate (3.8%). […] Adenosine-5'-diphosphate (ADP, 50 μL, 50 μM final concentration) was added to the cuvettes and the aggregation was monitored for 1 minute. […] The compounds tested and their median inhibitory concentrations (IC50) are recorded in Table 1. […]
observed_property: log10(IC50) (log10 of the value in nM)
The common logarithm of IC50 in nM is what is listed.

input: Quick one: give measured log10(IC50) for N=C(N)c1ccc(NC(=O)CCC(=O)N[C@@H](CC(=O)O)C(O)c2ccc(F)cc2)cc1 (single isomer, unassigned) [Ex 4 Step 5]
output: 2.18

input: // fetch log10(IC50) given entry N=C(N)c1ccc(NC(=O)CCC(=O)N[C@H]2CC(=O)OC2c2ccccc2)cc1 (single isomer, unassigned; isomer b) [Ex 3 Step 1]
output: 3.40

input: For the molecule N=C(N)c1ccc(NC(=O)CCC(=O)N[C@@H](CC(=O)O)C(O)c2ccccc2)cc1 (single isomer, unassigned) [Ex 3 Step 2] , give its reported log10(IC50).
output: 2.78

input: Query log10(IC50) for N=C(N)c1ccc(NC(=O)CCC(=O)N[C@@H](CC(=O)O)C(O)c2ccccc2)cc1 (single isomer, unassigned) [Ex 2 Step 6]
output: 3.20

input: // fetch log10(IC50) given entry N=C(N)c1ccc(NC(=O)CCC(=O)N[C@H]2CC(=O)OC2c2ccc3c(c2)OCO3)cc1 (single isomer, unassigned; diastereoisomer 2) [Ex 10 Step 1]
output: 3.48
